System: HepG2
Assay: GSK_TCMDC: Percent inhibition of human HepG2 cell line. Test compounds present at 10uM.
Type: functional
Measure name: Inhibition (%)
Answers are plain numbers, in %.

Br.CCc1c(CCNCCCCCCNCCc2ccc([N+](=O)[O-])cc2)ccc(O)c1O ... 5
COc1cccc(C(=O)NCc2cccs2)c1Oc1ccccc1 ... 0
Cc1nc(C)c(CC(=O)Nc2ccc(-c3ccc(-c4nc5cc(C(F)(F)F)ccc5[nH]4)s3)cc2)s1 ... 57
CNC(=O)c1cnc(Nc2ccc(OCC(O)CN(C)C)cc2)nc1Nc1cccc([N+](=O)[O-])c1.O=C(O)C(F)(F)F (centres undefined) ... 52
CCCCCCCN1CC[C@@H](CCCc2ccnc3ccc(OCCCCN/C(N)=N/O)cc23)[C@@H](CC)C1.O=C(O)C(=O)O ... 27
CCOc1cc2ncnc(Nc3ccc(OCc4ccccc4Br)c(OC)c3)c2cc1OCC.Cl ... 1
COC(=O)[C@@H](NC(=O)[C@H](CC(C)C)Nc1ccc(C#N)c2ccccc12)c1ccc(O)cc1.O=C(O)C(F)(F)F ... 4
Cl.O=C(Oc1ccc(C2CNCCc3c2cc(OC(=O)c2ccc(O)cc2)c(OC(=O)c2ccc(O)cc2)c3Cl)cc1)c1ccc(O)cc1 (centres undefined) ... 0
Nc1nc2c(ncn2OC[C@H](CO)OCP(=O)(O)O)c(=O)[nH]1 ... 5
OC(CNc1ccnc(Nc2ccccc2)n1)c1ccc(C(F)(F)F)cc1 (centres undefined) ... 3

// batch mode: one Inhibition value per listed entry
1. O=C(NC1CC1)c1ccc(N2CCCC(COc3ccc4c(c3)CCCC4)C2)nc1 (centres undefined)
2. FC(F)(F)c1ccc2[nH]ccc(=NN=Cc3ccccc3Cl)c2c1
3. Cc1ccoc1C(=O)Nc1cccc(-c2cccc(-c3nc4ccccc4[nH]3)c2)c1
4. Cc1ccc(O)cc1Nc1ccnc2cc(-c3csc(CN4CCN(C)CC4)n3)ccc12
5. Cc1nc(-c2cccc(C(=O)NC3CCC(CCN4CCc5ccc(-c6cccnc6)cc5CC4)CC3)c2)no1.Cl (centres undefined)
6. NS(=O)(=O)c1cccc(Nc2nc(N[C@@H]3CCNC3)nc3cc[nH]c(=O)c23)c1.O=C(O)C(F)(F)F
7. CCCCCCCc1c2c(C)c(C(=O)OCC)nc-2cc2n1CC(C)=C2C.Cl

1: 0; 2: 0; 3: 43; 4: 6; 5: 17; 6: 7; 7: 11

Could you report Inhibition for every entry in the following list?
1. Cc1cc(N)c2cc(NC(=O)c3cccc(C(=O)Nc4ccc5nc(C)cc(N)c5c4)c3)ccc2n1.Cl
2. CC(C)Cn1c(Sc2ccc(C#N)c([N+](=O)[O-])c2)nnc1-c1ccc(N(C)C)cc1
3. Cc1cc(N[C@@H](CC(C)C)C(=O)NCc2cccc(F)c2)nc(NCC2CCCCC2)n1.O=C(O)C(F)(F)F
4. COc1ccc(C(=O)N2CCC(CN3CCOC(c4ccccc4)(c4ccccc4)C3)CC2)cc1
5. COc1ccc2ncc(F)c([C@H](O)CN3CCC(NCc4ccc5c(c4)OCCO5)CC3)c2c1.Cl
6. CNC(=O)c1ccccc1Nc1nc(Nc2ccc(CCN3CCN(C)CC3)cc2)ncc1Cl.Cl

9
4
3
19
1
76

Dear colleague, could you send me Inhibition for each of the items below? Thanks.
1. COc1ccc2nccc([C@@H](O)CN3CCC(NCc4cc5ccccc5nc4O)CC3)c2c1.Cl
2. NC(=O)c1cccc(CN2Cc3ccccc3OC3(CCN(Cc4c[nH]c5cnccc45)CC3)C2)c1.O=C(O)C(F)(F)F
3. CC(=O)Nc1ccc(OCCCCN(Cc2ccccc2C(F)(F)F)c2ccc(C#N)c(C(F)(F)F)c2)c(Cl)c1
4. Cc1ccc2nc(C)cc(N/N=C/c3ccc([N+](=O)[O-])o3)c2c1
5. O=C(C=Cc1ccc(F)cc1)N1CCN(S(=O)(=O)c2ccc(Cl)cc2)CC1

1. 0
2. 9
3. 0
4. 15
5. 10

Quick one: Inhibition of `CN1CCCN(Cc2ccc(-c3ccc(NC(=O)c4cccc(C#N)c4)cc3)cc2)CC1.O=C(O)C(F)(F)F` ?
46
